Reference for the values: patent US4808411A

# assay.method.text: Bioavailability of 6-O-methylerythromycin in dogs (Example 12)
# Format: in vivo
# test.context: dog, blood, po, 250 mg 6-O-methylerythromycin, fasted, histamine
attribute.measured: AUC(0-t) at 8 h (ng·h/mL)
Number only, in ng·h/mL; omit the unit.

Query: I am curious: what AUC(0-t) at 8 h value has been reported for CC[C@H]1OC(=O)[C@H](C)[C@@H](O[C@H]2C[C@@](C)(OC)[C@@H](O)[C@H](C)O2)[C@H](C)[C@@H](O[C@@H]2O[C@H](C)C[C@H](N(C)C)[C@H]2O)[C@](C)(OC)C[C@@H](C)C(=O)[C@H](C)[C@@H](O)[C@]1(C)O [6-O--Methyl-ery, 6-O-methylerythromycin] ?
Result: 43500
